# Experimental System: PDE2 (Bos taurus)
# Sequence (P14099 whole entry): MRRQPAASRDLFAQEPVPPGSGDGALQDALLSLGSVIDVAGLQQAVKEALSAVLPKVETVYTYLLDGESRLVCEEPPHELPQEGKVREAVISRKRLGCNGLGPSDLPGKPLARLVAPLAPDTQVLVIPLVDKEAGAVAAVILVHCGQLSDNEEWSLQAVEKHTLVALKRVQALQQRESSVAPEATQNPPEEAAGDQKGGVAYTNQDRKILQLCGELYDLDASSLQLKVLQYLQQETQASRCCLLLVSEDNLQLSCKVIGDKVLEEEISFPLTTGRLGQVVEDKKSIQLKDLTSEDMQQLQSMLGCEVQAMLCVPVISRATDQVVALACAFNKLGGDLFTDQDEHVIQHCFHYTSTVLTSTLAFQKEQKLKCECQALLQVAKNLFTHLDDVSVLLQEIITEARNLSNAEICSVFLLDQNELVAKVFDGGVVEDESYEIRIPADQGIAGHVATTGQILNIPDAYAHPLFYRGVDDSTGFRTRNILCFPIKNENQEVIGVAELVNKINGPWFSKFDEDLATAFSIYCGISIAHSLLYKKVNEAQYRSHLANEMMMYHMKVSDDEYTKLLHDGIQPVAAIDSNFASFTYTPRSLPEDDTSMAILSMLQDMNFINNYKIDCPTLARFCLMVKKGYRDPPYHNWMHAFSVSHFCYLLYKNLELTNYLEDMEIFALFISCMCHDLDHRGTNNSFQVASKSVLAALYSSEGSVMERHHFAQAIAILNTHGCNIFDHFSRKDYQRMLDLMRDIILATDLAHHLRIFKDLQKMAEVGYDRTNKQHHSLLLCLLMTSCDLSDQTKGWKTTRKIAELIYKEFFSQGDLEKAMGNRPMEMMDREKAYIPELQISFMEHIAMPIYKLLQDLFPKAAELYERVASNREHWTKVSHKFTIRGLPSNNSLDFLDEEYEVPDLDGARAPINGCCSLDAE
# Experiment: Radioenzymatic phosphodiesterase assay: PDE2 inhibition
# Type: biochemical, bovine
# Measurement Setup: Table 1; 10 μM test compound; read-out: PDE2 percentage of inhibition at 10 μM
# Experimental: Nucleoside radioactivity was determined by liquid scintillation.
Observed Property: inhibition at 10 µM (%)
Write it as a number; the unit % goes unstated.

Which inhibition at 10 µM is reported with PDE2 (Bos taurus) for this entry: COc1cccc(-c2ccc3c(c2)C(c2cccc(C(N)=O)c2)=NCC(=O)N3C)c1 [Example 29] ?
95

Which inhibition at 10 µM is reported with PDE2 (Bos taurus) for this entry: COc1cc2c(cc1-c1ccc(F)cc1)C(c1cccc(C(N)=O)c1)=NCC(=O)N2C [Example 20] ?
99

Which inhibition at 10 µM is reported with PDE2 (Bos taurus) for this entry: COc1cc2c(cc1-c1cccc(Cl)c1)C(c1cccc(C(N)=O)c1)=NCC(=O)N2C [Example 24] ?
98

Which inhibition at 10 µM is reported with PDE2 (Bos taurus) for this entry: COc1cccc(Cl)c1-c1ccc2c(c1)C(c1cccc(C#N)c1)=NCC(=O)N2C [Example 82] ?
92

Which inhibition at 10 µM is reported with PDE2 (Bos taurus) for this entry: COc1ccc(Cl)cc1-c1ccc2c(c1)C(c1cccc(C#N)c1)=NCC(=O)N2C [Example 81] ?
22

Which inhibition at 10 µM is reported with PDE2 (Bos taurus) for this entry: CN1C(=O)CN=C(c2ccccc2Cl)c2cc(-c3ccccc3)ccc21 [Example 41] ?
34

Which inhibition at 10 µM is reported with PDE2 (Bos taurus) for this entry: COc1ccc(C2=NCC(=O)N(C)c3cc(OC)c(-c4c(OC)cccc4OC)cc32)cc1 [Example 109] ?
99

Which inhibition at 10 µM is reported with PDE2 (Bos taurus) for this entry: CN1C(=O)CN=C(c2cccc(Cl)c2)c2cc(-c3ccccc3)ccc21 [Example 40] ?
68

Which inhibition at 10 µM is reported with PDE2 (Bos taurus) for this entry: CN1C(=O)CN=C(c2cccc(C=O)c2)c2cc(-c3ccccc3)ccc21 [Example 9] ?
84

Which inhibition at 10 µM is reported with PDE2 (Bos taurus) for this entry: CN1C(=O)CN=C(c2ccc(OC(F)(F)F)cc2)c2cc(-c3ccccc3)ccc21 [Example 61] ?
31

Which inhibition at 10 µM is reported with PDE2 (Bos taurus) for this entry: COc1cc2c(cc1-c1ccc(Cl)cc1)C(c1cccc(C(N)=O)c1)=NCC(=O)N2C [Example 25] ?
97

Which inhibition at 10 µM is reported with PDE2 (Bos taurus) for this entry: COc1cccc(OC)c1-c1ccc2c(c1)C(c1cccc(C(N)=O)c1)=NCC(=O)N2C [Example 32] ?
100

Which inhibition at 10 µM is reported with PDE2 (Bos taurus) for this entry: COc1cccc(OC)c1-c1ccc2c(c1)C(c1cccc(C#N)c1)=NCC(=O)N2C [Example 16] ?
100

Which inhibition at 10 µM is reported with PDE2 (Bos taurus) for this entry: CN1C(=O)CN=C(c2cc(Cl)cc(Cl)c2)c2cc(-c3ccccc3)ccc21 [Example 55] ?
53

Which inhibition at 10 µM is reported with PDE2 (Bos taurus) for this entry: COc1ccc(C2=NCC(=O)N(C)c3ccc(-c4ccccc4)cc32)cc1OC [Example 64] ?
79

Which inhibition at 10 µM is reported with PDE2 (Bos taurus) for this entry: COc1ccccc1-c1cc2c(cc1OC)NC(=O)CN=C2c1cccc(C#N)c1 [Example 10] ?
94

Which inhibition at 10 µM is reported with PDE2 (Bos taurus) for this entry: COc1ccc(OC)c(-c2ccc3c(c2)C(c2cccc(C(N)=O)c2)=NCC(=O)N3C)c1 [Example 31] ?
99
